Listed next: entries and their corresponding ED50.
molecular target: UniProt P31652; assay: In vivo effective dose required to inhibit p-chloroamphetamine induced excitation in rats upon subcutaneous administration; assay type: functional, organism-based
Sequence (P31652 whole entry): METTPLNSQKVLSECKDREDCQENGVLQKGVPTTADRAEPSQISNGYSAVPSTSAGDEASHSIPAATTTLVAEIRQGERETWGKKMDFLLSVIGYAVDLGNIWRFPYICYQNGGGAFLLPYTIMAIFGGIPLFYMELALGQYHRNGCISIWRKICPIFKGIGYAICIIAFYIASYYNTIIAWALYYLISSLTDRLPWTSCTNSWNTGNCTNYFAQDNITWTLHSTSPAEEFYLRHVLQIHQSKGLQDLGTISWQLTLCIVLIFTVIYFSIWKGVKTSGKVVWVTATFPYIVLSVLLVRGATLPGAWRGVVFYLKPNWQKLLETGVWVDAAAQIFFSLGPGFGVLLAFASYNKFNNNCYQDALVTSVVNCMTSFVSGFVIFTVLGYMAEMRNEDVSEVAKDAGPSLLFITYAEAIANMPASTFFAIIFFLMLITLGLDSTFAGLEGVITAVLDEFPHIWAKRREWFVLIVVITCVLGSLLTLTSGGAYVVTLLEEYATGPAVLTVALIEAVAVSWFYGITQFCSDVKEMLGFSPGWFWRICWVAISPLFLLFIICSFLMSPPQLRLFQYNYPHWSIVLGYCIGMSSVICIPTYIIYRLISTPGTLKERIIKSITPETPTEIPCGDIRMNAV
Return type: number; implicit unit mg/kg.

Exam item: Request the reported ED50 associated with COc1cc2c(cc1OC)C1=NOC(CN3CCN(CCCc4ccccc4)CC3)C1CO2 (stereo not given)
Marked response: 5

Exam item: Request the reported ED50 associated with COc1cc2c(cc1OC)C1=NOC(CN3CCN(Cc4ccc5ccccc5c4)CC3)C1CO2 (stereo not given)
Marked response: 0.79

Exam item: Request the reported ED50 associated with COc1cc2c(cc1OC)C1=NOC(CN3CCN(Cc4cnc5ccccc5c4)CC3)C1CO2 (stereo not given)
Marked response: 5

Exam item: Request the reported ED50 associated with C(=C\c1ccccc1)/CN1CCN(CC2ON=C3c4ccccc4OCC32)CC1 (stereo not given)
Marked response: 5

Exam item: Request the reported ED50 associated with COc1ccc2c(c1)C1=NOC(CN3CCN(C/C=C/c4ccccc4)CC3)C1CO2 (stereo not given)
Marked response: 5
